- Tested on: SK-BR-3
- Test description: Cytotoxicity against human SK-BR-3 cells after 72 hrs by SRB assay
- Type: functional
- Reported conditions: SK-BR-3, 72 h, read-out: ED50 (the source's name)
Listing of entries alongside the reported EC50.

[
  {
    "Structure notation": "COc1cc(OC)cc(-c2cc3occ(C)c3c(=S)o2)c1",
    "EC50": "> 66.2 µM"
  },
  {
    "Structure notation": "COc1ccc(-c2cc3occ(C)c3c(=O)o2)cc1OC",
    "EC50": "> 69.9 µM"
  },
  {
    "Structure notation": "COc1cc(OC)cc(-c2cc3oc(C)c(C)c3c(=O)o2)c1",
    "EC50": "> 66.7 µM"
  }
]
